Data provenance: patent US20070105864A1

Form field: IC50 (one value per entry).
Measurement Target: recombinant His-CHK1 (Homo sapiens, UniProt O14757)
Construct: His-CHK1, In House Lot P976, MW ˜30 KDa, stored at −80 °C; fused on or other part: His tag
Sequence (O14757 1-265 limits assumed): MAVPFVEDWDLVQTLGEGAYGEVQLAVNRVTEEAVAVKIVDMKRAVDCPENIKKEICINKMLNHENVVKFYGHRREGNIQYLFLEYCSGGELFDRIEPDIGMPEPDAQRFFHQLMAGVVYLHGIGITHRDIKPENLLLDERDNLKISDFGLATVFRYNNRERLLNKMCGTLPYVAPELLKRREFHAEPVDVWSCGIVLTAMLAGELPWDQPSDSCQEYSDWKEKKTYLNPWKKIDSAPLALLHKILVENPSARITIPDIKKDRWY
Assay Text: CHK1 SPA Assay
Experimental Conditions: read-out: CHK-1 IC50

Compound	Value Unit	IC50
Cc1cc(Nc2nc(CCN)cn3c(-c4cnn(C)c4)cnc23)sn1	nM	7
Cc1cc(Nc2nc(C3=CCCNC3)cn3c(-c4cnn(C)c4)cnc23)sc1C(=O)N(C)C	nM	16
Cc1cc(Nc2nc(C3=CCCNC3)cn3c(-c4cnn(C)c4)cnc23)sn1	nM	14
CNCCCc1cn2c(-c3cnn(C)c3)cnc2c(Nc2sncc2C)n1	nM	8
Cc1cc(Nc2nc(C3=CCCNC3)cn3c(-c4cnn(C)c4)cnc23)sc1S(=O)(=O)NCCO	nM	6
Cn1cc(-c2cnc3c(Nc4sncc4C4CCCNC4)nccn23)cn1 (stereo not shown)	nM	18
Cc1cc(Nc2nc(C3CCCNC3)cn3c(-c4cnn(C)c4)cnc23)sn1 (stereo not shown)	nM	13
Cc1cc(Nc2nc(C3=CCCNC3)cn3c(-c4cnn(C)c4)cnc23)sc1C(=O)NC1CCN(S(C)(=O)=O)CC1	nM	24
Cc1cc(Nc2nc(C3=CCCNC3)cn3c(-c4cnn(C)c4)cnc23)sc1S(=O)(=O)N1CCCC1	nM	6
Cc1cc(Nc2nc(CCN)cn3c(-c4cnn(C)c4)cnc23)sc1C(N)=O	nM	19

----------
Measurement Target: recombinant His-CHK1 (Homo sapiens, UniProt O14757)
Construct: His-CHK1, In House Lot P976, MW ˜30 KDa, stored at −80 °C; fused on or other part: His tag
Assay Text: CHK1 SPA Assay
Experimental Conditions: read-out: CHK-1 IC50

Compound	IC50, µM
Cn1cc(-c2cnc3c(Nc4sncc4C4CCN(S(C)(=O)=O)C4)nc(CCCN)cn23)cn1 (stereo not shown)	0.008
Cn1cc(-c2cnc3c(Nc4sncc4C(C)(C)C)nc(C4=CCCNC4)cn23)cn1	0.016
Cc1cc(Nc2nc(SC3CCNC3)cn3c(-c4cnn(C)c4)cnc23)sn1 (stereo not shown)	0.019
Cc1cc(Nc2nc(C3=CCCNC3)cn3c(-c4cnn(C)c4)cnc23)sc1S(C)(=O)=O	0.008

----------
Measurement Target: recombinant His-CHK1 (Homo sapiens, UniProt O14757)
Construct: His-CHK1, In House Lot P976, MW ˜30 KDa, stored at −80 °C; fused on or other part: His tag
Assay Text: CHK1 SPA Assay
Experimental Conditions: read-out: CHK-1 IC50
pIC50: −log10 of the molar value.

Molecule	Measurement Target	pIC50
CCN(CC)S(=O)(=O)c1sc(Nc2nc(C3=CCCNC3)cn3c(-c4cnn(C)c4)cnc23)cc1C	recombinant His-CHK1 (Homo sapiens, UniProt O14757)	7.72
Cc1cc(Nc2nc(C3=CCCNC3)cn3c(-c4cnn(C)c4)cnc23)sc1S(=O)(=O)N(C)C	recombinant His-CHK1 (Homo sapiens, UniProt O14757)	8.15
Cc1cc(Nc2nc(C3=CCCNC3)cn3c(-c4cnn(C)c4)cnc23)sc1S(=O)(=O)NC1CC1 [drawing 1473]	recombinant His-CHK1 (Homo sapiens, UniProt O14757)	8.15
CC(C)c1cnsc1Nc1nc(CCN)cn2c(-c3cnn(C)c3)cnc12	recombinant His-CHK1 (Homo sapiens, UniProt O14757)	5.20
Cc1cc(Nc2nc(C3=CCCNC3)cn3c(-c4cnn(C)c4)cnc23)sc1S(=O)(=O)NCC1CC1	recombinant His-CHK1 (Homo sapiens, UniProt O14757)	8.10
CCNC(=O)c1sc(Nc2nc(C3=CCCNC3)cn3c(-c4cnn(C)c4)cnc23)cc1C	recombinant His-CHK1 (Homo sapiens, UniProt O14757)	7.82
Cc1cc(Nc2nc(C3=CCCNC3)cn3c(-c4cnn(C)c4)cnc23)sc1S(=O)(=O)N1CCOCC1	recombinant His-CHK1 (Homo sapiens, UniProt O14757)	8.15
Cn1cc(-c2cnc3c(Nc4sncc4C(C)(C)C)nc(CCN)cn23)cn1	recombinant His-CHK1 (Homo sapiens, UniProt O14757)	7.96
Cc1cc(Nc2nc(CCN)cn3c(-c4cnn(C)c4)cnc23)sc1S(=O)(=O)N(C)C	recombinant His-CHK1 (Homo sapiens, UniProt O14757)	7.85
